Experiment: Oral bioavailability in mouse
Assay type: ADME, organism-based
Conditions: in vivo
metric.name: bioavailability (%)
Provide the reading as a plain figure in %.

In one line, give reported bioavailability of the entry Fc1c(Br)cccc1Nc1ncnc2cc3c(cc12)OCCO3 . 4.7

----------
Entries annotated with measured Kp
Assay: Ratio of AUC (0 to 7 hrs) in brain to plasma of CD-1 mouse at 10 mg/kg, po administered via gavage by LC-MS/MS analysis
Assay type: ADME, organism-based
Details: brain and plasma
The response must contain the number and no unit.

Example entries begin here.
>>> value("Fc1c(Br)cccc1Nc1ncnc2cc3c(cc12)OCCO3")
2.12
>>> value("C#Cc1cccc(Nc2ncnc3cc4c(cc23)OCCO4)c1F")
0.843
>>> value("C#Cc1cccc(Nc2ncnc3cc4c(cc23)OCCO4)c1")
0.648
>>> value("Fc1cccc(Nc2ncnc3cc4c(cc23)OCCO4)c1F")
1.06

Tell me measured Kp for Fc1c(Cl)cccc1Nc1ncnc2cc3c(cc12)OCCO3 please. 1.06
